# Tested on: RARb:RXRa (NR concentration 270 nM, RXRa partner concentration 90 nM)
# assay_info: PBM binding z-score (relative to random genomic background probes); higher = stronger binding; sequences stand for … in GC…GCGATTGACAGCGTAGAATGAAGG
PBM binding z-score: recorded values
Reply with just the number.

{"sequence_string": "AGTCAAAGTTCATCTAGGTAACGGAAGATATGCT", "PBM binding z-score": 4.94}
{"sequence_string": "CTCGAAAGGTCGTGTTCAGGTGAGTATACCAAAC", "PBM binding z-score": 3.78}
{"sequence_string": "CCTTACGGGTCACACCAGGTTATAGCATCGGAGT", "PBM binding z-score": 4.06}

Q: Record request: PBM binding z-score value, item TCGAGTAGGTTAGGCGGGGCATTCAGCCAACATA
A: 0.48

Q: What does the record list as PBM binding z-score for AATACAGGGTCACTAGGCCAGAGGAGGTACGAAT ?
A: 4.17

Q: Tell me the measured PBM binding z-score of CTTCCAAGGTCAGCAGGTCAGTGAAAGCGACGTG , please.
A: 5.26

====

Entries and their PBM binding z-score values follow.
# Tested on: THRa homodimer (NR concentration 90 nM)
# assay_info: PBM binding z-score (relative to random genomic background probes); higher = stronger binding; sequences stand for … in GC…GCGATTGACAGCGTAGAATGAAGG
Field format: numeric only.

Consider the following illustrative entries.
{"sequence_string": "CAAACTAGGTCAAAGGTTAAAGTCGAGCCAACCA", "target_desc": "THRa homodimer (NR concentration 90 nM)", "PBM binding z-score": 1.04}
{"sequence_string": "AATACAGGGTCACTAAGCCAGAGTAGGTACGAAT", "target_desc": "THRa homodimer (NR concentration 90 nM)", "PBM binding z-score": 1.13}
{"sequence_string": "TCTTGTAGATAAAGCAGGTTAAGAAAGCCTGAGT", "target_desc": "THRa homodimer (NR concentration 90 nM)", "PBM binding z-score": -0.334}

Q: Report PBM binding z-score for AACTCTAGGTAACAAGTTCAGTGAAAGAGAGGAC please.
A: 0.448

Q: Which PBM binding z-score reading was recorded for the sequence CCTACTGGGCCAAAGGTCATTAATTCCAATGCTC ?
A: 0.695

Q: Item under review: CAAACTAGGTCACAGAGGTCAGAGTCCGTGCGTA . Reported PBM binding z-score?
A: 2.49

Q: Give its PBM binding z-score value. Item: TCTTGTAGATCAAGCAGGGTAAGAAAGCCTGAGT
A: -0.451

Q: For the sequence shown here, ACAGACAAGTGATGAAGGTAACTCAGGCTATCAT , give the reported PBM binding z-score.
A: -0.0791

====

# Test system: LXRb homodimer (NR concentration 270 nM)
# assay_info: PBM binding z-score (relative to random genomic background probes); higher = stronger binding; sequences stand for … in GC…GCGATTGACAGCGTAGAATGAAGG
reported_metric: PBM binding z-score
Give the figure only, with no unit attached.

Reference set (5 entries):
{"sequence_string": "GCAGACAGGTGAAACGCAGGTAGCTCAGGGTGGC", "PBM binding z-score": -1.08}
{"sequence_string": "TCTTGTAGATCAACAGGATGTTAAGAAAGATCGA", "PBM binding z-score": -0.659}
{"sequence_string": "ACTAGCAGGCCAACGGTCACTCAAGATTAGTCCG", "PBM binding z-score": -0.572}
{"sequence_string": "ATCGAAAGGTCGCCGAGGTGAGTATACACCGTTT", "PBM binding z-score": 0.601}
{"sequence_string": "AGAAGGAGGTTATTAAGATCAGGGAATTGCGGTC", "PBM binding z-score": 0.654}

Q: PBM binding z-score of CGAACTAGGTCATTGACAGGGCAGTGAATAGTAA on LXRb homodimer (NR concentration 270 nM)?
A: -0.104

Q: Record GCTGCTAGGACAACTGATGGTCAGCTAAAGCTCG : what is its PBM binding z-score with LXRb homodimer (NR concentration 270 nM)?
A: -1.05

Q: Field: PBM binding z-score (LXRb homodimer (NR concentration 270 nM)). Entry: ACTATTAGTTGACTTAGGGCAACCAATACGACGC
A: 0.496

Q: Which measured PBM binding z-score belongs to CAAACTAGGTGAAGGTCAAAGTCGGTTTGTGCCA , tested on LXRb homodimer (NR concentration 270 nM)?
A: 0.412
